Provide the recorded furin cleavage Z-score for the entries that follow.
- Assay System: furin, P09958;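 note: purified furin at 1:10 enzyme:substrate in 50 mM HEPES pH 7.5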
- Sequence (P09958 whole entry): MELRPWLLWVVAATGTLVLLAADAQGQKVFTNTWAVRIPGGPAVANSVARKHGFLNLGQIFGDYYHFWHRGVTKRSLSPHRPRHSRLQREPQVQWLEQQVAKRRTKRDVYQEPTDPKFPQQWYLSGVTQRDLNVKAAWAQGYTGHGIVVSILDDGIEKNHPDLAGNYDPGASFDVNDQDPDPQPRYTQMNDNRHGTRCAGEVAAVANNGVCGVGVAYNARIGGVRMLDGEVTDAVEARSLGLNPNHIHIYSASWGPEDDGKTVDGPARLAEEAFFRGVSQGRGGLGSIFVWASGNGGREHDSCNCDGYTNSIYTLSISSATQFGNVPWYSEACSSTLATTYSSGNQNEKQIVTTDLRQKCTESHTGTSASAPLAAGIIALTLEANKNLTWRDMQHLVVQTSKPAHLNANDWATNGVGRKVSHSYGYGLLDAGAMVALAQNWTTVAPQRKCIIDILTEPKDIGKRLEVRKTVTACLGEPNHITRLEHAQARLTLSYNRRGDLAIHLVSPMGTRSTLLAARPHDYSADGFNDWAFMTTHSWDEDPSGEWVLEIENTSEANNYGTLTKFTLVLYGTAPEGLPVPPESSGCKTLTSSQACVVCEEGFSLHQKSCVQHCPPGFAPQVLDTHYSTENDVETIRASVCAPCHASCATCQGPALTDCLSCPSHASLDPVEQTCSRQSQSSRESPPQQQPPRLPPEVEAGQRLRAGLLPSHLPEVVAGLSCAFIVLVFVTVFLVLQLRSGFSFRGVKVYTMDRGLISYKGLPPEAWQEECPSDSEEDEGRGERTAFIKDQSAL
- Test Protocol: furin cleavage Z-score vs untreated control; higher = more cleavage, active = 3.5 or more, inactive = 1 or less, 8 variable residues between constant flanks
- Condition Summary: 7.5 min
This is one part of the list. No count for the full screen is at hand.

furin cleavage Z-score for CAVYCCSMSYAGNASASA [HC2009] is -0.694 (inactive)

Consider CAVQARDLGPAGNASASA [FS-1874] . Its measured furin cleavage Z-score is -2.04 (inactive)

What the record says about CAECPCHRPSAGNASASA [HC2340] : furin cleavage Z-score is 0.0178 (inactive)

The sequence CARDGRKVTVAGNASASA [FS-2902] showed furin cleavage Z-score equal to -0.804 (inactive)

GET /value?item= CAVVGVVCAAAGNASASA [HC1107] &field=furin cleavage Z-score returns 0.556 (inactive)

The sequence CAVVGCSMSYAGNASASA [HC2036] showed furin cleavage Z-score equal to 1.64

Record CAEVVTSWWVAGNASASA [HC2208] , field furin cleavage Z-score: -0.678 (inactive)

Record CARAKRRGGGAGNASASA [FS-2886] , field furin cleavage Z-score: 0.374 (inactive)

response.value for CADTPCSAHLAGNASASA [HC2471] (field: furin cleavage Z-score) = -1.99 (inactive)

Summary for this sequence, CASTGFTKVCAGNASASA [HC439] : furin cleavage Z-score is 0.727 (inactive)

The sequence identified as CASWLGNIIMAGNASASA [HC1574] registered its furin cleavage Z-score at -0.174 (inactive)

CAKQKALGLLAGNASASA [HC1025] has a reported furin cleavage Z-score of -0.454 (inactive)
